- method.notes: Pharmacokinetics study of garcinol in mice
- Format: in vivo
- test.parameters: nude, ip; mouse serum, 2 mg/kg i.p.; read-out: time of peak serum concentration post-dose
quantity: Tmax (min)
Entry rule: numbers only, all in min.

Exam item: Reported Tmax for `C=C(C)[C@@H](CC=C(C)C)C[C@@]12C[C@@H](CC=C(C)C)C(C)(C)[C@@](CC=C(C)C)(C(=O)C(C(=O)c3ccc(O)c(O)c3)=C1O)C2=O` : what is it?
Marked response: 30

###

- method.notes: Pharmacokinetics study of garcinol in mice
- Format: in vivo
- test.parameters: nude, ip; mouse serum, 0.5 mg/kg i.p.; read-out: area under the serum concentration-time curve (AUC) at 8 h
quantity: AUC
# output: numeric value plus its unit

Exam item: Reported AUC for C=C(C)[C@@H](CC=C(C)C)C[C@@]12C[C@@H](CC=C(C)C)C(C)(C)[C@@](CC=C(C)C)(C(=O)C(C(=O)c3ccc(O)c(O)c3)=C1O)C2=O [garcinol] : what is it?
Marked response: 4.3 µM·h
